Recorded pKi, one value per entry.
Molecular target: 5-hydroxytryptamine receptor 2C (Homo sapiens)
Sequence (P28335 whole entry): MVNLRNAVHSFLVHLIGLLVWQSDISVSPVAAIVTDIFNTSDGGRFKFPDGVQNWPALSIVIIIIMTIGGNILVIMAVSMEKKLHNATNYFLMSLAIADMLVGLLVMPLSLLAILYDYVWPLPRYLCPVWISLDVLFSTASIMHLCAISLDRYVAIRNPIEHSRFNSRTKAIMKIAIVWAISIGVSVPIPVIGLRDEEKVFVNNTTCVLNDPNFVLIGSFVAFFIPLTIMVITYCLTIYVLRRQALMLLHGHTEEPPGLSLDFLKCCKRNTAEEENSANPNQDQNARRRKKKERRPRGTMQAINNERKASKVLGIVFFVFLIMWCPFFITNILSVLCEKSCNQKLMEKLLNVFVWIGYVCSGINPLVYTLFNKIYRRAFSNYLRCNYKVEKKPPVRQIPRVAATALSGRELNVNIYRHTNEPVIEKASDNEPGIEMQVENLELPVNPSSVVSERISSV
pKi: −log10 of the molar value.
result.type: pKi

[[record]]
compound_smiles = "COc1ccc(OC)c(CNCCc2cc(OC)c(Br)cc2OC)c1"
value = 7.11

[[record]]
compound_smiles = "COc1cc(CCNCc2ccccn2)c(OC)cc1Br"
value = 7.38

[[record]]
compound_smiles = "COc1cc(CCNCc2cccnc2OC)c(OC)cc1Br"
value = 7.15

[[record]]
compound_smiles = "COc1cc(CCNCc2cccc(OC)c2O)c(OC)cc1Br"
value = 8.20

[[record]]
compound_smiles = "COc1cc(CCNCc2cccnc2)c(OC)cc1Br"
value = 6.92

[[record]]
compound_smiles = "COc1cc(CCNCc2ccncc2)c(OC)cc1Br"
value = 6.81

[[record]]
compound_smiles = "COc1cc(CCNCc2cccc3c2OCC3)c(OC)cc1Br"
value = 8.47

[[record]]
compound_smiles = "COc1cc(CCNCc2cccc(OC)c2F)c(OC)cc1Br"
value = 7.25

[[record]]
compound_smiles = "COc1cccc(CNCCc2cc(OC)c(Br)cc2OC)c1"
value = 8.33

[[record]]
compound_smiles = "COc1cc(CCNCc2cccc3cc[nH]c23)c(OC)cc1Br"
value = 7.18

[[record]]
compound_smiles = "COc1cc(CCNCc2cccc3ncoc23)c(OC)cc1Br"
value = 7.49

[[record]]
compound_smiles = "COc1cc(CCNCc2cccc(O)c2)c(OC)cc1Br"
value = 7.68


Hey, just so you know, these numbers are from ChEMBL document CHEMBL3588775.
